Target: T1, ZO-1 PDZ2 (human, UniProt Q07157 184-264)
T1 construct: second PDZ domain of human ZO-1 (TJP1), residues 184-264, numbering of the full-length human protein; […]; Labelled on amines with RED-NHS dye for MST; also called TJP1 PDZ2; ZO-1-2
T1 sequence (looked up): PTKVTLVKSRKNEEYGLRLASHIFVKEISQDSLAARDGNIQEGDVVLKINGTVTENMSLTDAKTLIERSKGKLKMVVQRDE
Test: MST; […]; PBS tween 20 0.05%; room temperature; […]; duplicate
Settings: both partners purified
Reported property: Kd (µM)
A number alone suffices; assume µM.

Any idea what its Kd is? The binder is NLNSSRVLDLLV (also called P71L PBM peptide; SARS-CoV-2 P71L) [C-terminal SARS-CoV-2-E PBM P71L peptide of the beta variant]
133
